IC50 data for Chk2 kinase (Homo sapiens (Human), UniProt O96017) follow.

> print(dat)
                                   compound        result
1  CC(C)(O)Cn1cc(-c2cc(-c3cnc(N)c(C(=O)NC4CNC[C@@H](F)C4)n3)ccn2)cn1 (stereo partly drawn)       ≤ 10 nM
2  Cc1ccc(-c2cnn(CC(C)(C)O)c2)cc1-c1cnc(N)c(C(=O)N[C@@H]2CNCC(F)(F)C2)n1     > 1000 nM
3  Nc1ncc(-c2cc(-c3cnn(CC(F)(F)F)c3)ccc2F)nc1C(=O)N[C@@H]1CNC[C@H]1O  10 to 100 nM

State the recorded IC50 for every item in the following list.
1. Cn1cc(-c2cccc(-c3cnc(N)c(C(=O)NC4CCC5(CC5)NC4)n3)c2)cn1 (racemic)
2. CC(C)(O)Cn1cc(-c2ccc(F)c(-c3cnc(N)c(C(=O)N[C@@H]4CNC[C@@H](F)C4)n3)c2)cn1
3. Nc1ncc(-c2cc(-c3cnn(CC(F)(F)F)c3)ccc2F)nc1C(=O)N[C@@H]1CNCC[C@H]1O
4. CC(C)(O)Cn1cc(-c2cccc(-c3cnc(N)c(C(=O)N[C@@H]4CNC[C@@H](F)C4)n3)c2)cn1
5. CC(C)(O)Cn1cc(-c2cc(-c3cnc(N)c(C(=O)N[C@@H]4CNCC(F)(F)C4)n3)ccn2)cn1

[reply]
1. ≤ 10 nM
2. 10 to 100 nM
3. 10 to 100 nM
4. ≤ 10 nM
5. 100 to 1000 nM

All values here come from patent US20250188059A1.
